- experimental_system: T1, recombinant dimeric human TIGIT-Fc (Acro Biosystems TIT-H5254) (human, UniProt Q495A1 22-141)
- T1 construct: Bought protein; also called hTIGIT-Fc; not shown: Fc part of the bought fusion protein
- T1 sequence: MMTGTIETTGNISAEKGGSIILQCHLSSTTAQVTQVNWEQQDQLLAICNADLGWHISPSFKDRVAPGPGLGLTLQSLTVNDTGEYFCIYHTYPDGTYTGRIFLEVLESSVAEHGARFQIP
- test_method_notes: BLI (ForteBio Octet RED384), IgG on AHQ sensor, 100 nM antigen, 1:1 model
recorded_endpoint: pKd
Recall that pKd is obtained by taking minus log10 of the concentration measured in molar.

binder: Clone 2 (antibody, V domains shown, Fully human IgG produced in yeast; also called anti-TIGIT antibody clone 2) VH: EVQLVESGGGLVQPGGSLRLSCAASGFTFSDHYMDWVRQAPGKGLEWVGRTRNKANSYTTEYAASVKGRFTISRDDSKNSLYLQMNSLKTEDTAVYYCARGQYYYGSSSRGYYYMDVWGQGTTVTVSS VL: EIVLTQSPGTLSLSPGERATLSCRASQSVSSSYLAWYQQKPGQAPRLLIYGASSRATGIPDRFSGSGSGTDFTLTISRLEPEDFAVYYCQQAVPSPLTFGGGTKVEIK
pKd: 9.02
//
binder: Clone 25 (antibody, V domains shown, Fully human IgG produced in yeast; also called anti-TIGIT clone 25) VH: QVQLVQSGAEVKKPGASVKVSCKASGYTFTSYAISWVRQAPGQGLEWMGWISAYNGNTNYAQKLQGRVTMTTDTSTSTAYMELRSLRSDDTAVYYCARDLSSFWSGDVLGAFDIWGQGTMVTVSS VL: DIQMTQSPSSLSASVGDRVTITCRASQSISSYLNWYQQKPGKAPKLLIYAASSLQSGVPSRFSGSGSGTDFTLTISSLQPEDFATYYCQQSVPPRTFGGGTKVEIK
pKd: 9.21
//
binder: Clone 21 (antibody, V domains shown, Fully human IgG produced in yeast) VH: QLQLQESGPGLVKPSETLSLTCTVSGGSISSSSYYWGWIRQPPGKGLEWIGSIYYSGSTYYNPSLKSRVTISVDTSKNQFSLKLSSVTAADTAVYYCARDPLYQDAPFDYWGQGTLVTVSS VL: EIVLTQSPATLSLSPGERATLSCRASQSVSSYLAWYQQKPGQAPRLLIYDASNRATGIPARFSGSGSGTDFTLTISSLEPEDFAVYYCQQRANFPTFGGGTKVEIK
pKd: 9.23

Let us examine a further case.
*Q* Return reported pKd; argument: Clone 16 (antibody, V domains shown, Fully human IgG produced in yeast) VH: QVQLVQSGAEVKKPGSSVKVSCKASGGTFSSYAISWVRQAPGQGLEWMGGIIPIFGTASYAQKFQGRVTITADESTSTAYMELSSLRSEDTAVYYCARQSTWHKLYGTDVWGQGTTVTVSS VL: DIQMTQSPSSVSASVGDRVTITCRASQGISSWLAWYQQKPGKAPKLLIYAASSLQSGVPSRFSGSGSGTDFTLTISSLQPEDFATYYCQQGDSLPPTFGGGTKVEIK
*A* 9.16
